Each recorded value in this set is attributed to patent US7888360B2.

# protocol-notes: Solubility C.3.c (chemiluminescent nitrogen detector)
# Type: physicochemical
# test-parameters: aqueous buffer; pH = 2.3; read-out: Solubility C.3.c. pH = 2.3 mg/ml
value-kind: solubility (µg/mL)
Form entry: value (µg/mL) — number only.

Q) Specify solubility for CC(C)(C)c1ccc(C(C(O)CO)N2CCN(c3ncc(C(=O)NO)cn3)CC2)cc1 (centres unmarked) and stop.
A) 1390

Q) Please give the documented solubility of O=C(NO)c1cnc(N2CCN(C(CO)c3cccc4ccccc34)CC2)nc1 (centres unmarked)
A) 2900

Q) Tell me its solubility given O=C(NO)c1cnc(N2CCN(C(CO)c3cc4ccccc4o3)CC2)nc1 (centres unmarked) as the entry.
A) 2200

Q) Specify measured solubility for O=C(NO)c1cnc(N2CCN(C(CO)c3cc4ccccc4s3)CC2)nc1 (centres unmarked) .
A) 3250

Q) State its solubility: `CC(C)(C)c1ccc([C@H]([C@H](O)CO)N2CCN(c3ncc(C(=O)NO)cn3)CC2)cc1`
A) 900

====

# protocol-notes: Kinetic solubility in aqueous media C.3.b (BD Gentest Solubility Scanner)
# Format: physicochemical
# test-parameters: pH 7.4, kinetic from dmso stock; aqueous buffer, pH = 7, score; read-out: Solubility C.3.b. pH = 7
Please provide measured solubility at 0.5 h for the entries that follow.

Q) Specify solubility at 0.5 h for O=C(NO)c1cnc(N2CCN(C(CO)c3cc4ccccc4s3)CC2)nc1 (stereo not drawn) [Compound 2] and stop.
A) 10 to 50 µM

Q) Quote solubility at 0.5 h reported for O=C(NO)c1cnc(N2CCN(C(CO)c3cc4ccccc4o3)CC2)nc1 (stereo not drawn) [Compound 8] please.
A) 10 to 50 µM

Q) Item CCN(CC1CCN(c2ncc(C(=O)NO)cn2)CC1)C(CO)c1cc2ccccc2o1 (stereo not drawn) [Compound 4] : provide solubility at 0.5 h
A) 10 to 50 µM

Q) // fetch solubility at 0.5 h given entry O=C(NO)c1cnc(N2CCN(C(CO)c3cccc4ccccc34)CC2)nc1 (stereo not drawn) [Compound 1]
A) 10 to 50 µM

Q) Annotate the molecule O=C(NO)c1cnc(N2CCN(C(CO)c3ccc4ccccc4c3)CC2)nc1 (stereo not drawn) [Compound 7] with its measured solubility at 0.5 h.
A) ≤ 10 µM

Q) Output measured solubility at 0.5 h for this item: O=C(NO)c1cnc(N2CCN(C(CO)c3cn(S(=O)(=O)c4ccccc4)c4ccccc34)CC2)nc1 (stereo not drawn) [Compound 3]
A) 10 to 50 µM

====

Consider the following compounds; for each one, report its melting point.

Q) Give the value of melting point reported for the following: O=C(NO)c1cnc(N2CCN(C(CO)c3cc4ccccc4s3)CC2)nc1 (stereo not drawn)
A) 165 °C

Q) Give reported melting point value for O=C(NO)c1cnc(N2CCN(C(CO)c3cn(S(=O)(=O)c4ccccc4)c4ccccc34)CC2)nc1 (stereo not drawn)
A) 206 °C

Q) Tell me measured melting point for CC(C)(C)c1ccc(C(C(O)CO)N2CCN(c3ncc(C(=O)NO)cn3)CC2)cc1 (stereo not drawn) please.
A) 138 to 154 °C

Q) Specify melting point for CCN(CC1CCN(c2ncc(C(=O)NO)cn2)CC1)C(CO)c1cc2ccccc2o1 (stereo not drawn) and stop.
A) 90 °C

Q) Given `CC(C)(C)c1ccc([C@H]([C@H](O)CO)N2CCN(c3ncc(C(=O)NO)cn3)CC2)cc1` , respond with its melting point.
A) 163 to 171 °C

Q) Tell me measured melting point for O=C(NO)c1cnc(N2CCN(C(CO)c3cccc4ccccc34)CC2)nc1 (stereo not drawn) please.
A) 136 °C

====

For each of the compounds below, state its Enzymatic activity pIC50 C.1..
# subject-of-test: histone deacetylase (HeLa nuclear extracts)
# protocol-notes: In vitro assay for inhibition of histone deacetylase (Fluor de Lys, HeLa nuclear extracts)
# Format: biochemical
# Parameters: key: pIC50 = negative log of IC50
# test-parameters: Fluor de Lys substrate
Number only, no unit.

Q) Give recorded Enzymatic activity pIC50 C.1.. O=C(NO)c1cnc(N2CCN(C(CO)c3ccc4ccccc4c3)CC2)nc1 (stereo not shown)
A) 9.7

Q) Give the reported Enzymatic activity pIC50 C.1. for this compound. CCN(CC1CCN(c2ncc(C(=O)NO)cn2)CC1)C(CO)c1cc2ccccc2o1 (stereo not shown)
A) 7.9

Q) Tell us which Enzymatic activity pIC50 C.1. value is on record for `CC(C)(C)c1ccc([C@H]([C@H](O)CO)N2CCN(c3ncc(C(=O)NO)cn3)CC2)cc1`
A) 7.9

Q) Note down Enzymatic activity pIC50 C.1. recorded for O=C(NO)c1cnc(N2CCN(C(CO)c3cc4ccccc4s3)CC2)nc1 (stereo not shown)
A) 10.1

Q) Annotate the compound CC(C)(C)c1ccc(C(C(O)CO)N2CCN(c3ncc(C(=O)NO)cn3)CC2)cc1 (stereo not shown) [Compound 5] with its measured Enzymatic activity pIC50 C.1..
A) 7.5

Q) Retrieve Enzymatic activity pIC50 C.1. measured for O=C(NO)c1cnc(N2CCN(C(CO)c3cccc4ccccc34)CC2)nc1 (stereo not shown) and print it.
A) 10.0

Q) Output measured Enzymatic activity pIC50 C.1. for this item: O=C(NO)c1cnc(N2CCN(C(CO)c3cc4ccccc4o3)CC2)nc1 (stereo not shown)
A) 9.0

Q) Return reported Enzymatic activity pIC50 C.1.. Input compound: CC(C)(C)c1ccc(C(C(O)CO)N2CCN(c3ncc(C(=O)NO)cn3)CC2)cc1 (stereo not shown) [Compound 10]
A) 7.0

Q) Give recorded Enzymatic activity pIC50 C.1.. O=C(NO)c1cnc(N2CCN(C(CO)c3csc4ccccc34)CC2)nc1 (stereo not shown)
A) 9.8

====

# protocol-notes: Kinetic solubility in aqueous media C.3.a (nephelometer)
# Type: physicochemical
# test-parameters: aqueous buffer, kinetic from dmso stock; phosphate citrate buffer pH 7.4, turbidity score
value-kind: solubility

Q) Give recorded solubility. CC(C)(C)c1ccc(C(C(O)CO)N2CCN(c3ncc(C(=O)NO)cn3)CC2)cc1 (centres unmarked)
A) > 455 µM

Q) Specify solubility for `CC(C)(C)c1ccc([C@H]([C@H](O)CO)N2CCN(c3ncc(C(=O)NO)cn3)CC2)cc1` and stop.
A) > 455 µM
